Here the recorded IC50 is given for each entry.
biological target: truncated His-MBP-Tev-KLHDC2 (residues 1-363) (Homo sapiens); construct: truncated His -MBP-Tev-KLHDC2 (residues 1-363) purified from E. coli; made in house; host or cells: E. coli; assay: KLHDC2 HTRF binding assay; details: 1 nM KLHDC2 (residues 1-363), fluorescein-labeled diglycine peptide probe
Sequence (Q9Y2U9 1-363): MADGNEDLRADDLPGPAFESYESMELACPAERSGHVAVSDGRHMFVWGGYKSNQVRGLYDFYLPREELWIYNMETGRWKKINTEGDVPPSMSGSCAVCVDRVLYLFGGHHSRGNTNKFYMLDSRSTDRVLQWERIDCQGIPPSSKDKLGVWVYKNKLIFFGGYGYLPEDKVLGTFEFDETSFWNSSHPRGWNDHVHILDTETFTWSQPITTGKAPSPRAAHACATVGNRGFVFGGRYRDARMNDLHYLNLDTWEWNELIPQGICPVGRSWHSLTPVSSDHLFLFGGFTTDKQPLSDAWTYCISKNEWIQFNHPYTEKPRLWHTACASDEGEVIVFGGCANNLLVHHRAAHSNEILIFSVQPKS

Compound	IC50
O=C(O)Cn1cc(NC(=O)c2cccc(-c3cccnc3)c2)c(C(F)(F)F)cc1=O	0.5 to 5 µM
C[C@]1(C(=O)Nc2ccc(=O)n(CC(=O)O)c2)CCCN(c2cccnc2)C1	0.5 to 5 µM
CC(Cc1ccccc1Cl)C(=O)Nc1ccc(=O)n(CC(=O)O)c1 (centres unmarked)	> 5 µM
COc1cccc(C2C(C(=O)O)CC(=O)N2C2CC2)c1 (centres unmarked)	> 5 µM
O=C(O)Cn1cc(-c2cccc(CO)c2)ccc1=O	> 5 µM
O=C(O)Cn1cc(NC(=O)COc2ccc(F)cc2)ccc1=O	> 5 µM
Cc1cc(C)cc(-c2ccc(=O)n(CC(=O)O)c2)c1	> 5 µM
O=C(O)Cn1cc(NC(=O)c2nccc(-c3cccnc3)n2)ccc1=O	0.5 to 5 µM
NCCCCCCc1ccc(C(=O)Nc2ccc(=O)n(CC(=O)O)c2)cc1-c1cccnc1	0.5 to 5 µM
O=C(O)Cn1cc(-c2cc(F)c(O)c(F)c2)ccc1=O	> 5 µM
Cc1ccccc1-c1ccc(O)c(CC(=O)O)c1	> 5 µM
O=C(O)Cn1cc(NC(=O)c2ccc(-c3ccccc3)s2)ccc1=O	0.5 to 5 µM
O=C(O)Cn1cc(NC(=O)c2cccc(-c3cccnc3)c2)ccc1=O	0.5 to 5 µM
Nc1ccc(-c2ccc(=O)n(CC(=O)O)c2)cc1	> 5 µM
NC(=O)Cn1cc(NC(=O)c2cccc(-c3cccnc3)c2)ccc1=O	> 5 µM
Cc1cc(=O)n(CC(=O)O)cc1-c1cc(F)c(O)c(F)c1	> 5 µM
COc1cc(C(=O)Nc2ccc(=O)n(CC(=O)O)c2)cc(-c2ccccc2)c1	> 5 µM
O=C(O)Cn1cc(-c2ccc3cn[nH]c3c2)ccc1=O	> 5 µM
O=C(O)CCN1C(=O)CCc2ccccc21	> 5 µM
Cc1cc(-c2ccc(=O)n(CC(=O)O)c2)c(C)cc1O	> 5 µM

Recorded values, source patent US20250214969A1.
